Documented IC50 across a set of molecules
- TARGET DESC: human TRPA1 (Homo sapiens (Human), UniProt O75762)
- Sequence (O75762 whole entry): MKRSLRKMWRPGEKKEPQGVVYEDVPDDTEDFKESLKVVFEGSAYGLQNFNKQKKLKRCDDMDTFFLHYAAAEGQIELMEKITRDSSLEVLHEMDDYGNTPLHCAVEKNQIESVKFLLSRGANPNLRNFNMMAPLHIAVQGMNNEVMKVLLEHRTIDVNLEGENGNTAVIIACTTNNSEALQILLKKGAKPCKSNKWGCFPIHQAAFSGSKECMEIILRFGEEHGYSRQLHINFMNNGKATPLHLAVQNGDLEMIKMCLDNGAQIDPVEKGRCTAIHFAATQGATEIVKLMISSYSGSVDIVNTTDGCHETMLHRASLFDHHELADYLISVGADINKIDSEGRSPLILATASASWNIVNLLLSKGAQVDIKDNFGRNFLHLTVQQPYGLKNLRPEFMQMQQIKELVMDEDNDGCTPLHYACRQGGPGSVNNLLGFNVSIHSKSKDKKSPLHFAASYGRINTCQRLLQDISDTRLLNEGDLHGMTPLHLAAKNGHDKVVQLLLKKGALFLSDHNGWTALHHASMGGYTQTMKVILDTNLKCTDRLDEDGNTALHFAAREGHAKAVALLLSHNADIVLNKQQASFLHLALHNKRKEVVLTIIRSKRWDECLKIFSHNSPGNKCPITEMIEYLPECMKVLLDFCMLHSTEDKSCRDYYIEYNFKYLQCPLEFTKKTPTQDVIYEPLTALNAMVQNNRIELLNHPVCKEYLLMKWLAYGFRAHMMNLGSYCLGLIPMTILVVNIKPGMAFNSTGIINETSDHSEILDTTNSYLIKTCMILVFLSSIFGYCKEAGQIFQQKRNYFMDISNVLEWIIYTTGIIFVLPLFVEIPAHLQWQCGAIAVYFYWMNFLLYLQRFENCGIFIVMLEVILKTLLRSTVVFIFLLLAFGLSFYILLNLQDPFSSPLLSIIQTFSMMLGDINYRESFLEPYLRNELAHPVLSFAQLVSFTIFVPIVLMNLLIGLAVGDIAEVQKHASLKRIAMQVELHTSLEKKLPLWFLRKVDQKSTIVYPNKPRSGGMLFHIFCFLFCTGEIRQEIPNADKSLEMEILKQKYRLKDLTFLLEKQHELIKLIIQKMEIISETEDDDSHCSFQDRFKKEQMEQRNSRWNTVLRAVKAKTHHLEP
- ASSAY COMMENT: Measurement of TRPA1 antagonist activity (1): intracellular calcium increase
- Assay type: cell-based
- EXPERIMENTAL CONDITIONS: 293T cells transfected with human TRPA1 expression plasmid; allylisothiocyanate 20 μM stimulation; intracellular calcium fluorescence; read-out: hTRPA1 IC50
Give the value, in units of nM, as a plain number.

>  <CHEMICAL STRING>
O=C(NCc1cccc(OCc2ccc(C(F)(F)F)cc2)c1)[C@@H]1C=CCN1S(=O)(=O)c1cc2ccccc2o1

>  <TARGET DESC>
human TRPA1 (Homo sapiens (Human), UniProt O75762)

>  <IC50 / nM>
1.7

$$$$

Now look at this entry.
// field: IC50; key: Cc1ccc2oc(S(=O)(=O)N3CCC[C@H]3C(=O)NCc3cccc(-c4ccc(C(F)(F)F)nc4)c3)cc2c1 ; value = 130
